System: S. aureus UBMS 90-1 Tet M
Assay: microbe, parasite or virus in culture
Type: cell-based
Settings: S. aureus UBMS 90-1 Tet M
Counter-ions that a name gives are not always drawn.
property-label: MIC (mg/L)

>>> observed_measurement("CN(C)c1cc(NC(=O)CNCCN2CCCCC2)c(O)c2c1C[C@H]1C[C@H]3[C@H](N(C)C)C(O)=C(C(N)=O)C(=O)[C@@]3(O)C(O)=C1C2=O")
32
>>> observed_measurement("CN(C)c1cc(NC(=O)CNCC(F)(F)F)c(O)c2c1CC1CC3C(N(C)C)C(O)=C(C(N)=O)C(=O)C3(O)C(O)=C1C2=O (stereo not shown)")
16
>>> observed_measurement("CN(C)c1cc(NC(=O)CNCCF)c(O)c2c1CC1CC3C(N(C)C)C(O)=C(C(N)=O)C(=O)C3(O)C(O)=C1C2=O (stereo not shown)")
4
>>> observed_measurement("C#CCN(C)CC(=O)Nc1cc(N(C)C)c2c(c1O)C(=O)C1=C(O)[C@]3(O)C(=O)C(C(N)=O)=C(O)[C@@H](N(C)C)[C@@H]3C[C@@H]1C2")
16
>>> observed_measurement("CN(C)c1cc(NC(=O)CNCC2CC2)c(O)c2c1CC1CC3C(N(C)C)C(O)=C(C(N)=O)C(=O)C3(O)C(O)=C1C2=O.Cl.Cl (stereo not shown)")
1
>>> observed_measurement("CN(C)c1cc(NC(=O)CNCCCCO)c(O)c2c1C[C@H]1C[C@H]3[C@H](N(C)C)C(O)=C(C(N)=O)C(=O)[C@@]3(O)C(O)=C1C2=O")
32
>>> observed_measurement("CCCCCCCNCC(=O)Nc1cc(N(C)C)c2c(c1O)C(=O)C1=C(O)[C@]3(O)C(=O)C(C(N)=O)=C(O)[C@@H](N(C)C)C3CC1C2 (stereo partly shown) [J, dihydrochloride]")
1
>>> observed_measurement("CN(C)c1cc(NC(=O)C2CCCN2C(=O)C(F)(F)F)c(O)c2c1CC1CC3[C@H](N(C)C)C(O)=C(C(N)=O)C(=O)[C@@]3(O)C(O)=C1C2=O.Cl.Cl (stereo partly shown)")
8
>>> observed_measurement("CN(CCO)CC(=O)Nc1cc(N(C)C)c2c(c1O)C(=O)C1=C(O)[C@]3(O)C(=O)C(C(N)=O)=C(O)[C@@H](N(C)C)C3CC1C2 (stereo partly shown)")
32

---

Test system: Enterococcus 12201
Test: MIC, agar dilution
Type: cell-based
Details: Enterococcus 12201
property-label: MIC (µg/mL)

>>> observed_measurement("CN(C)c1cc(NC(=O)CNOCc2ccccc2)c(O)c2c1C[C@H]1C[C@H]3[C@H](N(C)C)C(O)=C(C(N)=O)C(=O)[C@@]3(O)C(O)=C1C2=O")
4
>>> observed_measurement("C#CCN(C)CC(=O)Nc1cc(N(C)C)c2c(c1O)C(=O)C1=C(O)[C@]3(O)C(=O)C(C(N)=O)=C(O)[C@@H](N(C)C)[C@@H]3C[C@@H]1C2")
8
>>> observed_measurement("CN(C)c1cc(NC(=O)CNCCCCO)c(O)c2c1C[C@H]1C[C@H]3[C@H](N(C)C)C(O)=C(C(N)=O)C(=O)[C@@]3(O)C(O)=C1C2=O")
8

---

The following compounds are shown together with reported MIC values.
System: S. aureus IVES 2943
Assay: MIC, agar dilution
Type: cell-based
Conditions: S. aureus IVES 2943
Structures can show the parent of a compound that is named as a salt.
property-label: MIC

>>> observed_measurement("CCCCCCCNCC(=O)Nc1cc(N(C)C)c2c(c1O)C(=O)C1=C(O)[C@]3(O)C(=O)C(C(N)=O)=C(O)[C@@H](N(C)C)C3CC1C2 (stereo partly drawn) [J, dihydrochloride]")
"0.5 µg/mL"
>>> observed_measurement("CN(C)c1cc(NC(=O)CNCC2CC2)c(O)c2c1CC1CC3C(N(C)C)C(O)=C(C(N)=O)C(=O)C3(O)C(O)=C1C2=O.Cl.Cl (stereo not drawn) [K]")
"8 µg/mL"
>>> observed_measurement("CN(C)c1cc(NC(=O)CNCCN2CCCCC2)c(O)c2c1C[C@H]1C[C@H]3[C@H](N(C)C)C(O)=C(C(N)=O)C(=O)[C@@]3(O)C(O)=C1C2=O [U]")
"> 32 µg/mL"
>>> observed_measurement("CN(C)c1cc(NC(=O)CNOCc2ccccc2)c(O)c2c1C[C@H]1C[C@H]3[C@H](N(C)C)C(O)=C(C(N)=O)C(=O)[C@@]3(O)C(O)=C1C2=O [X]")
"8 µg/mL"
>>> observed_measurement("CN(C)c1cc(NC(=O)C2CCCN2C(=O)C(F)(F)F)c(O)c2c1CC1CC3[C@H](N(C)C)C(O)=C(C(N)=O)C(=O)[C@@]3(O)C(O)=C1C2=O.Cl.Cl (stereo partly drawn) [A]")
"16 µg/mL"
>>> observed_measurement("CC1CCN(CC(=O)Nc2cc(N(C)C)c3c(c2O)C(=O)C2=C(O)C4(O)C(=O)C(C(N)=O)=C(O)C(N(C)C)C4CC2C3)CC1.Cl.Cl (stereo not drawn) [G]")
"0.5 µg/mL"

---

The following molecules are shown together with reported MIC values.
Tested on: E. coli MC 4100 Tet sens.
Assay: MIC, agar dilution
Assay type: cell-based
property-label: MIC (µg/mL)

>>> observed_measurement("CN(C)c1cc(NC(=O)CNCCF)c(O)c2c1CC1CC3C(N(C)C)C(O)=C(C(N)=O)C(=O)C3(O)C(O)=C1C2=O (centres unmarked)")
2
>>> observed_measurement("CN(C)c1cc(NC(=O)CNOCc2ccccc2)c(O)c2c1C[C@H]1C[C@H]3[C@H](N(C)C)C(O)=C(C(N)=O)C(=O)[C@@]3(O)C(O)=C1C2=O")
4
>>> observed_measurement("CN(C)c1cc(NC(=O)CNCCN2CCCCC2)c(O)c2c1C[C@H]1C[C@H]3[C@H](N(C)C)C(O)=C(C(N)=O)C(=O)[C@@]3(O)C(O)=C1C2=O")
4
>>> observed_measurement("C#CCN(C)CC(=O)Nc1cc(N(C)C)c2c(c1O)C(=O)C1=C(O)[C@]3(O)C(=O)C(C(N)=O)=C(O)[C@@H](N(C)C)[C@@H]3C[C@@H]1C2")
32
>>> observed_measurement("CN(C)c1cc(NC(=O)CNCC2CC2)c(O)c2c1CC1CC3C(N(C)C)C(O)=C(C(N)=O)C(=O)C3(O)C(O)=C1C2=O.Cl.Cl (centres unmarked)")
0.12

---

Test system: S. aureus ROSE (MP)
Assay: MIC, agar dilution
Format: cell-based
Conditions: S. aureus ROSE (MP)
Where a name gives a salt, the structure may show the parent alone.
property-label: MIC (µg/mL)

>>> observed_measurement("CCCCCCCNCC(=O)Nc1cc(N(C)C)c2c(c1O)C(=O)C1=C(O)[C@]3(O)C(=O)C(C(N)=O)=C(O)[C@@H](N(C)C)C3CC1C2 (stereo partly drawn) [J, dihydrochloride]")
2
>>> observed_measurement("CN(C)c1cc(NC(=O)C2CCCN2C(=O)C(F)(F)F)c(O)c2c1CC1CC3[C@H](N(C)C)C(O)=C(C(N)=O)C(=O)[C@@]3(O)C(O)=C1C2=O.Cl.Cl (stereo partly drawn)")
32
>>> observed_measurement("CC1CCN(CC(=O)Nc2cc(N(C)C)c3c(c2O)C(=O)C2=C(O)C4(O)C(=O)C(C(N)=O)=C(O)C(N(C)C)C4CC2C3)CC1.Cl.Cl (stereo not drawn)")
1

---

Test system: E. coli MC 4100 Tet sens.
Experiment: MIC, agar dilution
Format: cell-based
Structures can show the parent of a compound that is named as a salt.
The following compounds are shown together with reported MIC values.
property-label: MIC (µg/mL)

>>> observed_measurement("CN(CCO)CC(=O)Nc1cc(N(C)C)c2c(c1O)C(=O)C1=C(O)[C@]3(O)C(=O)C(C(N)=O)=C(O)[C@@H](N(C)C)C3CC1C2 (stereo partly drawn)")
4
>>> observed_measurement("CCCCCCCNCC(=O)Nc1cc(N(C)C)c2c(c1O)C(=O)C1=C(O)[C@]3(O)C(=O)C(C(N)=O)=C(O)[C@@H](N(C)C)C3CC1C2 (stereo partly drawn) [J, dihydrochloride]")
1
>>> observed_measurement("CN(C)c1cc(NC(=O)CNN2CCCCC2)c(O)c2c1CC1CC3C(N(C)C)C(O)=C(C(N)=O)C(=O)C3(O)C(O)=C1C2=O (stereo not drawn)")
32
>>> observed_measurement("CN(C)c1cc(NC(=O)CNCC(F)(F)F)c(O)c2c1CC1CC3C(N(C)C)C(O)=C(C(N)=O)C(=O)C3(O)C(O)=C1C2=O (stereo not drawn)")
16
>>> observed_measurement("CN(C)c1cc(NC(=O)CNCCO)c(O)c2c1CC1CC3C(N(C)C)C(O)=C(C(N)=O)C(=O)C3(O)C(O)=C1C2=O.Cl (stereo not drawn)")
4
>>> observed_measurement("CN(C)c1cc(NC(=O)CNCCCCO)c(O)c2c1C[C@H]1C[C@H]3[C@H](N(C)C)C(O)=C(C(N)=O)C(=O)[C@@]3(O)C(O)=C1C2=O")
8

Data provenance: patent US5328902A
